Tested on: EBV lymphoblastoid cells (LCL) viability, plate reader
test details: cytotoxicity in EBV lymphoblastoid cells, dose response, cytotoxicity control, cell-based, plate reader, cherry-picks, set 2 (AID 504882)
Records with an inconclusive call do not appear.
So I've got a bunch of compounds here, and I need their AC50 values.

| structure string | test system | recorded measurement |
| --- | --- | --- |
| CC(=O)c1ccc(-c2nc3c4ccccc4ccn3c2C(C)=O)o1 | EBV lymphoblastoid cells (LCL) viability, plate reader | 371 nM |
| Cc1csc(N=Nc2ccc(N(C)C)cc2)[n+]1[O-] | EBV lymphoblastoid cells (LCL) viability, plate reader | 7330 nM |
| C/C(=N\NC(=O)c1cccc(Br)c1)c1ccccn1 | EBV lymphoblastoid cells (LCL) viability, plate reader | 803 nM |
| CC(=NNC(=S)N1CCCCC1)c1cccc(C)n1 | EBV lymphoblastoid cells (LCL) viability, plate reader | 2370 nM |

Item `CCN(CC)c1ccc(/C=N/NC(=O)c2cnccn2)c(O)c1` with EBV lymphoblastoid cells (LCL) viability, plate reader - AC50?
3230 nM
